# measurement_target: NHERF4_1, Q86UT5-2
# Sequence (Q86UT5 other isoform, or with tags, fused parts or gaps): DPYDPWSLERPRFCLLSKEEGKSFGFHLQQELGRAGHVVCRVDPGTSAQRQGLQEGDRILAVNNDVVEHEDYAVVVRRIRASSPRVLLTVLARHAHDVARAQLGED
# protocol_description: holdup assay
# Parameters: key: below the threshold = too weak to quantify, mostly under pKd 3.1 to 4
# condition_notes: plain residues with an end cap or a label only (N-terminal biotin on a linker: ado-ado)
reported_metric: pKd

binder: IGHEDLETAV [DGKI, O75912]
measurement: below the threshold
--
binder: MLPANYVEAI [NEB, P20929]
measurement: below the threshold
--
binder: PLPPEEESWV [GAS2L2, Q8NHY3]
measurement: below the threshold
